experiment: Apparent permeability across apical to basolateral side in MDCKII-MDR1 cells at 10 uM by LC-MS/MS analysis; format: ADME, cell-based, Canis lupus familiaris; settings: dog, MDCK-MDR1
measured.quantity: Papp A→B at 10 µM (nm/s)
# unit: nm/s | format: bare number

Lookup: Annotate the compound O=C(Nc1ccc(O)c(O)c1)c1cc(-c2ccc(C(F)(F)F)cc2)n[nH]1 with its measured Papp A→B at 10 µM.
Found: 42

Lookup: Annotate the compound Cc1ccc(-c2cc(C(=O)Nc3cc(O)ccc3O)[nH]n2)cc1 with its measured Papp A→B at 10 µM.
Found: 22.6

Lookup: Annotate the compound O=C(Nc1cc(O)ccc1O)c1cc(-c2ccc(Br)cc2)n[nH]1 with its measured Papp A→B at 10 µM.
Found: 296

Lookup: Annotate the compound O=C(Nc1cc(O)ccc1O)c1cc(-c2ccc(C(F)(F)F)cc2)n[nH]1 with its measured Papp A→B at 10 µM.
Found: 497
